- measurement.notes: M. tuberculosis growth inhibition, HTS (AID 1259417);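 further: bacteria grown with compound for 5 days at 37 °C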
- assay.setup: M. tuberculosis growth inhibition; stronger effect = higher value; concentration not given here
Out of some 1,100 compounds screened, about 760 (69%) were called active. So high a share suggests a set chosen from earlier hits. The list shows a part of the results.
Param threshold (20%) applies to inhibition; output true when value >= threshold, false when value < threshold.

Solved cases below.
{"compound": "COC(=O)CSc1nc(N2CCCCC2)c2c(c1C#N)CCCC2", "label.value": "true"}
{"compound": "CC1=NN(c2nc3ccccc3s2)C(=O)C1Cc1cccc2ccccc12 (configuration not stated)", "label.value": "true"}
{"compound": "COC(=O)CSc1nc2c(c(-c3ccco3)c1C#N)CCCC2", "label.value": "false"}
{"compound": "O=[N+]([O-])c1ccc(N2CCN(CCO)CC2)cc1NCCOc1cccc2ccccc12", "label.value": "false"}

Tell me whether inhibition is at least 20% here: `CCN(CC)c1ccc(NC(=S)NCc2ccc(Cl)cc2)cc1`
true

Tell me whether inhibition is at least 20% here: Cc1c(CNC(=O)c2cnn3c2NC(c2ccc(Br)cc2)CC3C(F)(F)F)cnn1C (configuration not stated)
false

Tell me whether inhibition is at least 20% here: `Cc1ccnc(NC(=O)COc2ccc([N+](=O)[O-])cc2)c1`
false

Tell me whether inhibition is at least 20% here: O=C(NCc1ccco1)c1cnn2c1NC(c1ccc(Br)cc1)CC2C(F)(F)F (configuration not stated)
false

Tell me whether inhibition is at least 20% here: `Cc1ccccc1C(=O)Nc1nnc(-c2ccc(F)cc2)o1`
true

Tell me whether inhibition is at least 20% here: CN1CCC(O)(c2cccs2)C(C(=O)c2cccs2)C1 (configuration not stated)
true

Tell me whether inhibition is at least 20% here: `CCOC(=O)COc1ccc2cc(-c3nc4ccccc4s3)c(=O)oc2c1`
true

Tell me whether inhibition is at least 20% here: `COC(=O)COc1ccc(NC(=O)COc2ccc(C(C)(C)C)cc2)cc1`
true

* * *

- measurement.notes: M. tuberculosis growth inhibition, HTS (AID 1259417);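 further: bacteria grown with compound for 5 days at 37 °C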
- assay.setup: M. tuberculosis growth inhibition; stronger effect = higher value; concentration not given here
Hit rate of the full screen: of about 1,100 compounds, about 760 (69%) were called active. So high a share suggests a set chosen from earlier hits. The list shows a part of the results.
The entries below come with measured inhibition values attached.
Record the value in %, omitting the unit from your answer.

Look over these answered cases.
{"smi": "COc1ccc(-c2csc(-c3ccc(OC)c(OC)c3)n2)cc1C", "inhibition [%]": -8.81}
{"smi": "O=C(CSc1nnc(Cc2ccccc2)o1)Nc1ccc2c(c1)OCO2", "inhibition [%]": -1.39}

Here is another compound to look at.
# input compound: `O=C(NCCc1c[nH]c2ccccc12)c1cc2ccccc2oc1=O` ; wanted: its inhibition
96

* * *

- measurement.notes: M. tuberculosis growth inhibition, HTS (AID 1259417);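 further: bacteria grown with compound for 5 days at 37 °C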
- assay.setup: M. tuberculosis growth inhibition; stronger effect = higher value; concentration not given here
Screen size: about 1,100 compounds; about 760 (69%) were called active. So high a share suggests a set chosen from earlier hits. Some of the results follow.
Hi all, reminder that labels come from inhibition, split as L: < 40%; M: ≥ 40% and < 70%; H: ≥ 70%

Solved cases below.
{"compound": "COc1ccccc1OC(=O)c1sc2ccccc2c1Cl", "label.value": "M"}
{"compound": "CCOC(=O)C(C)Sc1nnc(NC(=O)c2ccc(C)c([N+](=O)[O-])c2)s1 (stereo not given)", "label.value": "L"}
{"compound": "O=C(Nc1ncnc2sc3c(c12)CCCC3)c1ccc(F)cc1", "label.value": "M"}
{"compound": "CN1CCN(C(=S)NC(=O)c2ccc(-c3ccccc3)cc2)CC1", "label.value": "L"}

Kindly state the category for this compound: `Cc1cc(C)n(-c2nc(NC(C)C)nc(NC(C)C)n2)n1`
M

Kindly state the category for this compound: `Cc1cccc(N2CCN(c3ncnc4sc5c(c34)CCCC5)CC2)n1`
L

Kindly state the category for this compound: `CCC(=O)Oc1cccc2ccc(C=Cc3ccccc3F)nc12`
H

Kindly state the category for this compound: `c1ccc(CCNc2nc(-c3ccccn3)cs2)cc1`
H

Kindly state the category for this compound: O=S(Cc1ccccc1)c1nc2ccccc2s1 (stereo not given)
H

Kindly state the category for this compound: `COC(=O)CSc1nnc(NC(=O)c2ccc(Cl)cc2)s1`
H
